All values here come from patent EP4548971A1.

Tested on: HL-1 cardiac cells
Experiment: CytoTox-Glo cytotoxicity assay (cell viability)
Type: cell-based
Conditions: CytoTox-Glo assay in 100 µM solutions after 24 h incubation
parameter: Viability (%)
Give just the numeric value; % need not be written.

Worked cases, answers included:
1. COc1ccc(SCCCN(CCCCC2(O)CC2)CCCCC2(O)CC2)cc1 [Compound 14c]
90
2. COc1ccc2c(c1)CN(CCCCN(CCCCC1(O)CC1)CCCCC1(O)CC1)CCS2 [Compound 14a]
80
3. COc1ccc2c(c1)CN(C)CCS2 [Compound S107, reference compound]
98
4. COc1ccc2c(c1)CN(Cc1ccc(C(=O)O)cc1)CCS2 [ARM210, reference compound]
90
5. COc1ccc(OCCCNCCCCC2(O)CC2)cc1 [Compound 13b]
100
6. COc1ccc2c(c1)CN(CCCCC1(O)CC1)CCS2 [Compound 13d]
95

// Viability value for COc1ccc(SCCCNCCCCC2(O)CC2)cc1 [Compound 13c] : 73

// Viability value for COc1ccc2c(c1)CN(CCCCNCCCCC1(O)CC1)CCS2 [Compound 13a] : 84

// Viability value for COc1ccc2c(c1)CN(C(=O)C(=O)O)CCS2 [Compound S36, reference compound] : 94
